Protocol Details: log P by HPLC
Type: physicochemical
Particulars: HPLC, gradient method, acetonitrile/0.1% aqueous phosphoric acid; EEC directive 79/831 Annex V. A8
Reported Metric: logP

Completed entries (count: 7):
Cc1nc2nc(Cl)c(-c3ccc(Cl)cc3Cl)c(N(N)CC(C)C)n2n1
3.71
Cc1nc2nc(Cl)c(-c3c(F)cccc3F)c(NCCC(F)(F)F)n2n1
2.63
Fc1ccc(-c2c(Cl)nc3nc(C(F)(F)F)nn3c2NC2CCCC(C(F)(F)F)C2)c(F)c1 (stereo not drawn)
4.44
Cc1nc2nc(Cl)c(-c3c(F)cccc3Cl)c(NC3CC3)n2n1
2.77
CCNc1c(-c2c(F)cc(F)cc2F)c(Cl)nc2nc(CC)nn12
2.78
Cc1nc2nc(Cl)c(-c3c(F)cc(F)cc3F)c(N(N)CC(C)C)n2n1
3.06
CC(C)Nc1c(-c2ccc(F)cc2F)c(Cl)nc2nc(C3CC3)nn12
3.2

a: Fc1cc(F)c(-c2c(Cl)nc3nc(C4CC4)nn3c2NCC(F)(F)F)c(F)c1
b: Cc1nc2nc(Cl)c(-c3ccccc3Cl)c(N3CC=CCC3)n2n1
// task: argmin of logP over [ a , b ] Mark your answer with the label of the selected entry. b
(b: 0.75, a: 3.25)
